tested_target: recombinant human ROCK-1 (Homo sapiens)
Sequence (Q13464 whole entry): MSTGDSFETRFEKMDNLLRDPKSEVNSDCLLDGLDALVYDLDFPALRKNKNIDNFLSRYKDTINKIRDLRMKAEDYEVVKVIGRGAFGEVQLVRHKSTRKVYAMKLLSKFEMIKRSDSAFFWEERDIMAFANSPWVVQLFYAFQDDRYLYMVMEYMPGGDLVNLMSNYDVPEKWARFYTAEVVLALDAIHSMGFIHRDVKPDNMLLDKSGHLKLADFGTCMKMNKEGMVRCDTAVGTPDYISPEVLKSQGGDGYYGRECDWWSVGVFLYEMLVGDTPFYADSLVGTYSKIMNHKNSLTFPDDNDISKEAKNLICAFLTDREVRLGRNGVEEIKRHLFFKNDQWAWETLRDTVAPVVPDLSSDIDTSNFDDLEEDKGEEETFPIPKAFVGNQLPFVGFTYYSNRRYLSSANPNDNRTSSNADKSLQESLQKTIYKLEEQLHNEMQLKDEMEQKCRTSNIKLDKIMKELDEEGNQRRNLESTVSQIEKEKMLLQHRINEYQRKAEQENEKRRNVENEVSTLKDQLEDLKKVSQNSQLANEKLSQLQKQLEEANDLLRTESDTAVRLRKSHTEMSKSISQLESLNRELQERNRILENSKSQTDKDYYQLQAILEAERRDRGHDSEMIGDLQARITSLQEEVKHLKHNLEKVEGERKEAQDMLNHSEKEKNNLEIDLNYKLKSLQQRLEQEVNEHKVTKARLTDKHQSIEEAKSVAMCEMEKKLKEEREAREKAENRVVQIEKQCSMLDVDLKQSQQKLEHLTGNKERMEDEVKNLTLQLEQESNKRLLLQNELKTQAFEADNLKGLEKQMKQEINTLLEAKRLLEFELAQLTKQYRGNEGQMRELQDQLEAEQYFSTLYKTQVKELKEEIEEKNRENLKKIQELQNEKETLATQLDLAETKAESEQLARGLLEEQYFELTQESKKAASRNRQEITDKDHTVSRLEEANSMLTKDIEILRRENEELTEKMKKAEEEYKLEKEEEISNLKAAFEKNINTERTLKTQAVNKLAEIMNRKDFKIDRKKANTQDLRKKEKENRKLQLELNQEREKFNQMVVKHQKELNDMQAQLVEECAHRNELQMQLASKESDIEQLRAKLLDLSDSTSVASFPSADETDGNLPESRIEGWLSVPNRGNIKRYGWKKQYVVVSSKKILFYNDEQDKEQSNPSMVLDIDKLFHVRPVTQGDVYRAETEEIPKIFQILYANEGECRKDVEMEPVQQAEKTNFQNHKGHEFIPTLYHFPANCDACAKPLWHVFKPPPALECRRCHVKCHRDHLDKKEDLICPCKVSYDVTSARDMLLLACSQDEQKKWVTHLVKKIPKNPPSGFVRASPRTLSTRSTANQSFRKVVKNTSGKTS
assay_text: In-vitro inhibitory activity on recombinant human ROCK-1 (IMAP fluorescence polarisation, fluorescein-labelled peptide)
Type: biochemical
condition_parameters: read-out: ROCK-I pIC50 (converted)
// IC50 lookup, one value per entry
The reply should read as a number followed by its unit.

Some solved entries appear below for comparison.
- compound: "Nc1nccc2cc(S[C@H]3CCNC3)ccc12 [Example 13A]"
  IC50: "631 nM"
- compound: "CN1CCC(Oc2ccc3c(=O)[nH]ccc3c2)CC1 [Example 30G]"
  IC50: "631 nM"
- compound: "CC(c1ccccc1)N1CCC[C@H](Oc2ccc3c(N)nccc3c2)C1 (some centres unmarked) [Example 21G]"
  IC50: "200 nM"
- compound: "O=c1[nH]ccc2cc(O[C@H]3CCCN(CCOc4ccccc4)C3)ccc12 [Example 32C]"
  IC50: "631 nM"

Request: Lab note: need IC50 with recombinant human ROCK-1 (Homo sapiens) for entry Cc1cc2c(N)nccc2cc1OC1CCCN(Cc2ccccc2)C1 (centres unmarked) [Example 19A] , please look it up.
Result: 794 nM
